Numbers sourced from patent US9409952B2.

# assayName: Metabolic stability in human hepatic microsome
# Assay type: in vitro ADME
# particulars: human, microsomes, pH 7.4, CL NADPH(+)
Starred links: 1 amine or outer side, 2 acyl side, 3 side chain; linkers in the order of their positions; H or OH if unused. Positions of bridges follow the written chain, without caps; N, C: chain ends. Non-standard residues stand in square brackets, D forms with d. Residues, ends and D or L forms follow the SMILES beside them. *: point of attachment. NMeF = CN[C@@H](Cc1ccccc1)C(=O)O; NMeGABA = CN(CCCC(=O)[*:2])[*:1]; NMeL = CN[C@@H](CC(C)C)C(=O)O; NMeV = CN[C@H](C(=O)O)C(C)C; NMeA = CN[C@@H](C)C(=O)O; Piperidide = C1CCN(*)CC1; tBu = CC(C)(C)*
measuredProperty: microsomal CLint at 1 uM (µL/min/mg)
Give just the numeric value; µL/min/mg need not be written.

CC(C)C[C@H]1C(=O)N[C@@H](COC(C)(C)C)C(=O)N[C@H](C(=O)N2CCCCC2)CC(=O)N[C@H](C)C(=O)N(C)[C@@H](C)C(=O)N(C)[C@@H](Cc2ccccc2)C(=O)N(C)[C@@H](CC(C)C)C(=O)N[C@@H]([C@@H](C)O)C(=O)N(C)[C@@H](C)C(=O)N1C [DP-148] ([dA][NMeA][NMeF][NMeL]T[NMeA][NMeL]S(tBu)D-Piperidide; lactam N-9) :: 69

Summary for this compound, CC[C@H](C)[C@@H]1NC(=O)[C@H](Cc2ccccc2)NC(=O)[C@H](C(C)C)N(C)C(=O)CCCN(C)C(=O)C[C@@H](C(=O)N2CCCCC2)NC(=O)[C@H](Cc2ccccc2)NC(=O)[C@H](CC(C)C)N(C)C(=O)CNC(=O)[C@H](CC(C)C)N(C)C(=O)[C@H](C)N(C)C(=O)[C@H]([C@@H](C)O)NC(=O)[C@H](CC(C)C)NC1=O [DP-273] ([NMeGABA][NMeV]FILT[NMeA][NMeL]G[NMeL]FD-Piperidide; lactam N-12) : microsomal CLint at 1 uM is 102
